// values below are reported pEC50
system.under.test: Protein mono-ADP-ribosyltransferase TIPARP (Homo sapiens)
Sequence (Q7Z3E1 whole entry): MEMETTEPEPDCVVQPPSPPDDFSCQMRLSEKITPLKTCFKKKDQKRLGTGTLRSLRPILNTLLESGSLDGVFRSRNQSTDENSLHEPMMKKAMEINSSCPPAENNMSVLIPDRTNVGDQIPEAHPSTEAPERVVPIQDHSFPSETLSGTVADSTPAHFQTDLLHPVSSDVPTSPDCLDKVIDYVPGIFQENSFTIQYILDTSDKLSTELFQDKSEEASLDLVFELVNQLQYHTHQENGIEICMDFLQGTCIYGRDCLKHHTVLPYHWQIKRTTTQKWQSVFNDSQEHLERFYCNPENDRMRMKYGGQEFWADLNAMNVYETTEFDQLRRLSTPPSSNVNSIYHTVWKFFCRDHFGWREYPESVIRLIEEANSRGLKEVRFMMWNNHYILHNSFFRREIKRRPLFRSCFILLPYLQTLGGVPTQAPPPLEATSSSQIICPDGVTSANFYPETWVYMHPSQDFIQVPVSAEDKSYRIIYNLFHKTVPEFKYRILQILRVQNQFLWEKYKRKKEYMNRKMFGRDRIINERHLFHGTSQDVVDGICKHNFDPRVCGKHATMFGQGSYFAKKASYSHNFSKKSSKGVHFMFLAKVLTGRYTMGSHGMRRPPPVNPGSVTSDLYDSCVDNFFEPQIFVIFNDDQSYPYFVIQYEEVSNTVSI
protocol: Inhibition of PARP7 in human NCI-H1373 cells assessed as increase in STAT1 phosphorylation at Tyr701 residue incubated for 48 hrs by LANCE Ultra TR-FRET assay
pEC50: −log10 of the molar value.
measurement.label: pEC50

INSERT INTO assay_data (compound, observed) VALUES
  ('O=C(CCC1Cc2ccccc2N1c1cc(C(F)(F)F)c(=O)[nH]n1)N1CCN(c2ncc(C(F)(F)F)cn2)CC1 (centres undefined)', 6.75),
  ('O=C([C@@H](O)CCNc1cc(C(F)(F)F)c(=O)[nH]n1)N1CCN(c2ncc(C(F)(F)F)cn2)CC1', 7.67),
  ('O=C(CCCN(c1ccccc1)c1cc(C(F)(F)F)c(=O)[nH]n1)N1CCN(c2ncc(C(F)(F)F)cn2)CC1', 7.13),
  ('O=C(CCCNc1cc(C(F)(F)F)c(=O)[nH]n1)N1CCN(c2ncc(C(F)(F)F)cn2)CC1', 7.14),
  ('O=C(CCCCc1cc(C(F)(F)F)c(=O)[nH]n1)N1CCN(c2ncc(C(F)(F)F)cn2)CC1', 7.22),
  ('CN(CCCC(=O)N1CCN(c2ncc(C(F)(F)F)cn2)CC1)c1cc(C(F)(F)F)c(=O)[nH]n1', 7.12),
  ('CCN(CCCC(=O)N1CCN(c2ncc(C(F)(F)F)cn2)CC1)c1cc(C(F)(F)F)c(=O)[nH]n1', 7.29),
  ('O=C(CC[C@@H]1CCCN1c1cc(C(F)(F)F)c(=O)[nH]n1)N1CCN(c2ncc(C(F)(F)F)cn2)CC1', 8.03),
  ('O=C(CC[C@@H]1CCCCN1c1cc(C(F)(F)F)c(=O)[nH]n1)N1CCN(c2ncc(C(F)(F)F)cn2)CC1', 6.76);
